Tested on: P388;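 also: compound exposure lasted 48 hours before growth was measured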
protocol-summary: cells
Assay type: functional
condition-label: Mus musculus
Calls of active or inactive are those of the source.
Select the correct class. Options are t for active, f for inactive and nothing else.

Below are worked cases with known answers.
> print(dat)
                                   compound  group
1  COC(=O)C12OCC34C(CC5C(C)=CC(=O)C(O)C5(C)C3C(O)C1O)OC(=O)C(OC(=O)CC(C)C)C24 (centres undefined)      t
2  COc1ccc2c(c1O)-c1cc(O)cc3c1[C@@H](C2)N(C)CC3      f
3   CNC(=O)SCC(N)C(=O)O (centres undefined)      f

I'd appreciate the recorded outcome for Nc1cccc2c1C1=NNC(=O)CC1C2 (centres undefined) from this test. f

###

experimental-target: Cytochrome P450 1A2 (Homo sapiens, UniProt P05177);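 also: PubChem cytochrome P450 panel assay, CYP1A2 panel member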
Sequence (P05177 whole entry): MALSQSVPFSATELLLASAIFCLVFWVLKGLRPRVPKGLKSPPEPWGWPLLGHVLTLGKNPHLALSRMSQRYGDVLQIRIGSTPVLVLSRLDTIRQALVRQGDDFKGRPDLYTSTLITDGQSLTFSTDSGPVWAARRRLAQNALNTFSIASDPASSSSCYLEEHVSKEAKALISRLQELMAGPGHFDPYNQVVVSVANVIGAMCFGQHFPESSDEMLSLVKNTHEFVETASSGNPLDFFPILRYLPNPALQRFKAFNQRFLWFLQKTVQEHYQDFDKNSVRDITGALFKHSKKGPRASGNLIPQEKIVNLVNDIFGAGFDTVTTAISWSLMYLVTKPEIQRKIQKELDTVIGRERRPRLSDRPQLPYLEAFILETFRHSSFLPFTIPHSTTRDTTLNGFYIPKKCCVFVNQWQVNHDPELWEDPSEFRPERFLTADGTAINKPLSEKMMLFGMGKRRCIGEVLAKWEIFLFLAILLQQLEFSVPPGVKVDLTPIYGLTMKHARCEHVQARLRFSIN
Consider the following molecules; for each one, report its AC50.

Return reported AC50 values for all items listed beneath this line.
1. CNC[C@@H](SC)c1ccc(O)c(O)c1
2. CC(=O)NCCNc1ncncc1-c1ccccc1C
3. O=S(=O)(c1cccc2cnccc12)N1CCNCC1
4. C[C@@H](C(=O)NCc1ccc(S(C)(=O)=O)cc1)[C@@H]1C[C@@]1(C)[C@@H](NC(=O)OCc1ccccc1)c1ccccc1
5. C[C@@H](COc1ccccc1)N(CCCl)Cc1ccccc1

1. 6.31 µM (inconclusive)
2. 25.1 µM (inconclusive)
3. 39.8 µM (inconclusive)
4. 15.8 µM (inconclusive)
5. 12.6 µM (inconclusive)

Return reported AC50 values for all items listed beneath this line.
1. Cc1c(C(=O)O)oc2ccc(S(=O)(=O)NCc3ccc4c(c3)OCO4)cc12
2. O=C(Nc1ccc(F)cc1F)c1cccn1-c1ncc(C(F)(F)F)cc1Cl
3. O=C(Oc1ccccc1)N1CCC2(CC1)CN(Cc1ccncc1)C2

1. 14.1 µM (inconclusive)
2. 14.1 µM (inconclusive)
3. 10 µM (inconclusive)

###

protocol-summary: cells
Type: functional, cell-based
Activity calls are given as the source filed them.
Consider the following compounds; for each one, report its EC50.

See these solved cases before continuing.
> print(dat)
                                   compound            assay.value
1  COc1ccc(OC)c(Nc2nc(NCCC(C)C)nc(N)c2[N+](=O)[O-])c1  > 350 µM (not active)
2           Cc1ccn2cc(-c3ccc(O)c(O)c3)nc2c1       6.58 µM (active)
3         COc1ccc(NC(=S)c2ccc(N(C)C)cc2)cc1        145 µM (active)
4  Cc1cccc2[nH]c(CN(C)C(=O)C3CCC(=O)N(C4CC4)C3)nc12 (stereo unspecified)  > 350 µM (not active)

Return reported EC50 values for all items listed beneath this line.
1. Cc1cc(C)[n+](Cc2ccccc2)cc1C(N)=O
2. Cc1ccc(S(=O)(=O)NC2=NC(=O)/C(=C/c3cc([N+](=O)[O-])ccc3O)S2)cc1

["> 350 µM (not active)", "53.1 µM (active)"]

FYI, the data here is from ChEMBL document CHEMBL1201862.
